The origin of these recorded values is patent US8247211B2.

Tested on: Staphylococcus sp.
method_notes: In vitro antibacterial evaluation: minimum inhibitory concentration (MIC), broth dilution method
Type: cell-based
condition_set: broth dilution, 5×10^5 CFU/mL, 18 hours at 35° C.
Measured MIC Staphylococcus aureus (GC 1131) accompanies every entry in the list below.
Reply with just the number (in µg/mL).

Previously resolved entries follow.
- compound: "CC(c1ccccc1)C1NC(=O)CNC(=O)C(CO)NC(=O)C(C(O)C2CNC(=N)N2C2OC(CO)C(O)C(O)C2O)NC(=O)C(C(O)C2CNC(=N)N2)NC(=O)C(Cc2ccc(OC3OC(CO)C(OC4OC5COC(c6ccc(-c7ccsc7)cc6)OC5C(O)C4O)C(O)C3O)cc2)NC1=O (stereo not shown)"
  target_or_system: "Staphylococcus sp."
  reported_value: 4
- compound: "CCOc1cc(C2OCC3OC(OC4C(CO)OC(Oc5ccc(CC6NC(=O)C(C(C)c7ccccc7)NC(=O)CNC(=O)C(CO)NC(=O)C(C(O)C7CNC(=N)N7C7OC(CO)C(O)C(O)C7O)NC(=O)C(C(O)C7CNC(=N)N7)NC6=O)cc5)C(O)C4O)C(O)C(O)C3O2)ccc1OC (stereo not shown)"
  target_or_system: "Staphylococcus sp."
  reported_value: 16
- compound: "CSc1ccc(C2OCC3OC(OC4C(CO)OC(Oc5ccc(CC6NC(=O)C(C(C)c7ccccc7)NC(=O)CNC(=O)C(CO)NC(=O)C(C(O)C7CNC(=N)N7C7OC(CO)C(O)C(O)C7O)NC(=O)C(C(O)C7CNC(=N)N7)NC6=O)cc5)C(O)C4O)C(O)C(O)C3O2)cc1[N+](=O)[O-] (stereo not shown)"
  target_or_system: "Staphylococcus sp."
  reported_value: 1
- compound: "CC(c1ccccc1)C1NC(=O)CNC(=O)C(CO)NC(=O)C(C(O)C2CNC(=N)N2C2OC(CO)C(O)C(O)C2O)NC(=O)C(C(O)C2CNC(=N)N2)NC(=O)C(Cc2ccc(OC3OC(CO)C(OC4OC5COC(c6ccc(C(=O)c7ccccc7)cc6)OC5C(O)C4O)C(O)C3O)cc2)NC1=O (stereo not shown)"
  target_or_system: "Staphylococcus sp."
  reported_value: 2
- compound: "CCCc1ccc(C2OCC3OC(OC4C(CO)OC(Oc5ccc(CC6NC(=O)C(C(C)c7ccccc7)NC(=O)CNC(=O)C(CO)NC(=O)C(C(O)C7CNC(=N)N7C7OC(CO)C(O)C(O)C7O)NC(=O)C(C(O)C7CNC(=N)N7)NC6=O)cc5)C(O)C4O)C(O)C(O)C3O2)cc1 (stereo not shown)"
  target_or_system: "Staphylococcus sp."
  reported_value: 1
- compound: "CC(c1ccccc1)C1NC(=O)CNC(=O)C(CO)NC(=O)C(C(O)C2CNC(=N)N2C2OC(CO)C(O)C(O)C2O)NC(=O)C(C(O)C2CNC(=N)N2)NC(=O)C(Cc2ccc(OC3OC(CO)C(OC4OC5COC(c6cc7c(cc6Cl)OCO7)OC5C(O)C4O)C(O)C3O)cc2)NC1=O (stereo not shown)"
  target_or_system: "Staphylococcus sp."
  reported_value: 2

Kindly review the next compound as well.
Query CC(C)=CCOc1cccc(C2OCC3OC(OC4C(CO)OC(Oc5ccc(CC6NC(=O)C(C(C)c7ccccc7)NC(=O)CNC(=O)C(CO)NC(=O)C(C(O)C7CNC(=N)N7C7OC(CO)C(O)C(O)C7O)NC(=O)C(C(O)C7CNC(=N)N7)NC6=O)cc5)C(O)C4O)C(O)C(O)C3O2)c1 (stereo not shown) on Staphylococcus sp.; MIC Staphylococcus aureus (GC 1131) returned: 16
